- Assay Method Text: Particle size and polydispersity index of lipid nanoparticles by dynamic light scattering
- Assay type: physicochemical
- Test Conditions: MO nanoparticles with amino lipid at RMO 0.05, Pluronic F-127, 25° C., mean ± SD n=3
Assay Readout: PDI of the formulations

A. CCCCCCCC/C=C\CCCCCCCC(=O)NCCN1CCCCC1 [Lipid-13, N-(2-(piperidin-1-yl)ethyl)oleamide]
B. CCCCCCCC/C=C\CCCCCCCC(=O)NCc1ccncc1 [Lipid-10, N-(pyridine-4-ylmethyl)oleamide]
# input Of the two listed items, which has the higher PDI of the formulations? First: A Second: B Label of pick, please.
# output A

----------
- Assay Method Text: Particle size and polydispersity index of lipid nanoparticles by dynamic light scattering
- Assay type: physicochemical
- Test Conditions: MO nanoparticles with amino lipid at RMO 0.1, Pluronic F-127, 25° C., mean ± SD n=3
Assay Readout: PDI of the formulations

Compound | PDI of the formulations
CCCCCCCC/C=C\CCCCCCCC(=O)NCCN1CCOCC1 | 0.20
CCCCCCCC/C=C\CCCCCCCC(=O)NCc1ccncc1 [Lipid-10, N-(pyridine-4-ylmethyl)oleamide] | 0.21
CCCCCCCC/C=C\CCCCCCCC(=O)NCc1ccccn1 | 0.18
